assay: SMARCA2 (BRM) function activators, primary screen, cell-based, luminescence, high throughput (AID 652017); details: MG213 cells, MMTV-luciferase reporter, dexamethasone, overnight; at 9.1 µM; stronger effect = higher value;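 also: 0% = vehicle wells and 100% = reference activator wells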
About 3,800 (1%) of roughly 370,000 compounds were called active. The full list was thinned out, with actives kept by preference.
REPORTED_PROPERTY: activation (%)
The figure you give is taken to be in %; do not add the unit.

>  <COMPOUND>
O=C(Nc1cccc(Cl)c1)c1cncn1-c1ccc(F)cc1

>  <MEASUREMENT_UNIT>
%

>  <activation>
-2.14

$$$$
>  <COMPOUND>
CCc1nn(-c2cc(Oc3cccc4ccccc34)nc(-c3ccccc3)n2)c(N)c1C#N

>  <MEASUREMENT_UNIT>
%

>  <activation>
0.3

$$$$
>  <COMPOUND>
CS(=O)(=O)N1CCN(C(=O)CSc2ccccc2)CC1

>  <MEASUREMENT_UNIT>
%

>  <activation>
-2.96

$$$$
>  <COMPOUND>
CC1(C(=O)NS(=O)(=O)C2CC2)CCCN(C(=O)CSc2ccccc2)C1 (configuration not stated)

>  <MEASUREMENT_UNIT>
%

>  <activation>
10.6

$$$$
>  <COMPOUND>
COC(=O)c1cccc(Cn2ccc3ccc(-c4ccc5ccn(C(=O)C6CCCCC6)c5c4)cc32)c1

>  <MEASUREMENT_UNIT>
%

>  <activation>
-0.58

$$$$
>  <COMPOUND>
CC(C)CNC(=O)C1(C)CCCN1C(=O)CSc1ccccc1 (configuration not stated)

>  <MEASUREMENT_UNIT>
%

>  <activation>
-1.93

$$$$

Qu. So what does the record say about activation for "O=S1(=O)c2c(cccc2N2CCCCC2)O[C@H](COCc2ccccc2)CN1C1CC1" ?
Ans. -5.02

Where do these numbers come from? They come from PubChem BioAssay AID652017.
